Listing of recorded RGA IC50 by entry.
- EXPERIMENTAL SYSTEM: T1, human IL-11 (human, UniProt P20809 22-199)
- T1 sequence: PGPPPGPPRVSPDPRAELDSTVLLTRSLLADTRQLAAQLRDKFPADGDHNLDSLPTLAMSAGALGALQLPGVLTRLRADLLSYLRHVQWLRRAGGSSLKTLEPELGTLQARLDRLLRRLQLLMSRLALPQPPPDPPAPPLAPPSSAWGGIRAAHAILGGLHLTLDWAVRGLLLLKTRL
- ASSAY COMMENT: cell-based or functional assay
Give just the numeric value; nM need not be written.

TPP-26333 (antibody, V domains shown) VH: EVQLLESGGGLVQPGGSLRLSCAASGFTFSSYGFHWVRQAPGKGLEWVSVISYDGSYKYYADSVKGRFTISRDNSKNTLYLQMNSLRAEDTAVYYCAAGVPDYWGQGTLVTVSS VL: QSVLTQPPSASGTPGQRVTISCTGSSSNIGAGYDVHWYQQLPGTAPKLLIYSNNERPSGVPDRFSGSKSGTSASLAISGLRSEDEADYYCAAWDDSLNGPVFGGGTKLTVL; 13

Here is another binder to look at.
For record TPP-26316 (antibody, V domains shown) VH: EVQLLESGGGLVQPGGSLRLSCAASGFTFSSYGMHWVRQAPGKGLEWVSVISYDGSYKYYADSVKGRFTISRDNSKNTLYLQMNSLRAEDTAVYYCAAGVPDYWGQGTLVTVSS VL: QSVLTQPPSASGTPGQRVTISCTGSSSNIGAGYDVHWYQQLPGTAPKLLIYSNNERPSGVPDRFSGSKSGTSASLAISGLRSEDEADYYCAAWDMSLNGPVFGGGTKLTVL the listed RGA IC50 is 1.6

Data provenance: patent US20240317847A1
